B1: CPEB3 Ribozyme (parent)
chain: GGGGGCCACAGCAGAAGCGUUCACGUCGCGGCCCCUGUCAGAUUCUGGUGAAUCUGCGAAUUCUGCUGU

variants of: B1; assay: self-cleavage, relative activity (ratio to wild type); higher = more cleavage; co-transcriptional
The entries below are paired with their reported self-cleavage.
Just the number, please, no unit attached.

Example results:
INSERT INTO assay_data (mutation_list, readout_type, value_measured) VALUES
  ('G41U G56A', 'self-cleavage', 0.581),
  ('G14U G65A', 'self-cleavage', 0.32),
  ('G31C C32A', 'self-cleavage', 0.474);

According to the records, this variant U20G C66U displays self-cleavage of 0.216

Recorded result, G30U U55C , self-cleavage: 0.287

self-cleavage for G19C G31U is 0.217

// self-cleavage value for G3C U49G : 0.039

C18U C29A has a reported self-cleavage of 0.161

Entry G19U G37C , self-cleavage reported as 0.175

The reported value for G17U G19A in terms of self-cleavage is 0.209

Noted for G2C G25U : its self-cleavage reads 0.0456

Form field self-cleavage, entry C24A C35G : 0.173

Reported self-cleavage ( G25C A42G ) = 0.194

Looking up A23G U62C , I see its self-cleavage listed as 0.667

Looking up C32G G48A , I found its self-cleavage recorded as 0.62

// self-cleavage lookup, variant = C45G C57G , result: 0.328
